SUBJECT_OF_TEST: recombinant mouse APA (Mus musculus)
Sequence (P16406 whole entry): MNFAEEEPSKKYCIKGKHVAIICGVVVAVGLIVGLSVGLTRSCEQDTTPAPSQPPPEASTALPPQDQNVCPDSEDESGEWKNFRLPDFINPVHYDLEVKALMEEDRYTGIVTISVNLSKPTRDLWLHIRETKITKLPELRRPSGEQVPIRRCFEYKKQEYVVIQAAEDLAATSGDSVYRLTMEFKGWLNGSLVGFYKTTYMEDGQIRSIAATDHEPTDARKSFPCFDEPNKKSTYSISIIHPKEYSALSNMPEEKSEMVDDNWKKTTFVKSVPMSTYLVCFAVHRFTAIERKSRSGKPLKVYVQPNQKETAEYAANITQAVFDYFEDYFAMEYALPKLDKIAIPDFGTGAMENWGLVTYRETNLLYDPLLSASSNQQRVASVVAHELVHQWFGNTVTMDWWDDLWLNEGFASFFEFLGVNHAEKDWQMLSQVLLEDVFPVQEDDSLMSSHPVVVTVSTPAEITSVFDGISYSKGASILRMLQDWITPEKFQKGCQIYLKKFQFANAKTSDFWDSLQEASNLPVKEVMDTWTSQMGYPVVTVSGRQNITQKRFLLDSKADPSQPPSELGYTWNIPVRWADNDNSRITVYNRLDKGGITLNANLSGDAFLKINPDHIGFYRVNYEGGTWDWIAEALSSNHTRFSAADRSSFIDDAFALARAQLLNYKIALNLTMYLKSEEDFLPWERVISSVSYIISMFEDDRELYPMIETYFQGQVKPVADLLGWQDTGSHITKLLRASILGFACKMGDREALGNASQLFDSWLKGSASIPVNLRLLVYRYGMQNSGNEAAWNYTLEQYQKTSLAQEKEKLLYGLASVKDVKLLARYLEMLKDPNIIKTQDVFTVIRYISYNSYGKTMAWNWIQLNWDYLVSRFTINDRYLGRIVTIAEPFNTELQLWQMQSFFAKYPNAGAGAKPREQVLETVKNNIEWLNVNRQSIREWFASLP
MEASUREMENT_PROTOCOL: Measurement of APA activity in vitro (hydrolysis of GluβNa, colorimetric)
CONDITION_CONTEXT: 200 μM Glu-βNa, pH 7.4, 37° C., 4 mM CaCl2, read-out: In vitro inhibition of aminopeptidase A, IC50 classification
pIC50: −log10 of the molar value.
ENDPOINT_NAME: pIC50

• CC(C)CCCCP(=O)(O)C(N)CCC(=O)O (centres unmarked) [Example 3] = 6.52 to 7.52

Recorded result, NC(CCC(=O)O)P(=O)(O)CC1CCCCC1 (centres unmarked) [Example 10] , pIC50: > 7.52

pIC50 for N[C@H](CS)CCS(=O)(=O)O [EC33, reference compound] is 5.00 to 6.52

Entry under test: CC(C)CCP(=O)(O)C(N)CCC(=O)O (centres unmarked) [Example 1] . Its pIC50 was 6.52 to 7.52

The recorded pIC50 for CCCCCP(=O)(O)C(N)CCC(=O)O (centres unmarked) [Example 4] is 6.52 to 7.52

For this compound ( CC(C)CCCP(=O)(O)C(N)CCC(=O)O (centres unmarked) [Example 2] ), measured pIC50 is 6.52 to 7.52
